Record form. Attribute: pIC50. Fill in for each entry.
- TEST SYSTEM: Eg5 motor domain construct Eg5-367H (Homo sapiens)
- Construct: the Eg5 motor domain construct Eg5-367H; His tag (read from the 'H' in the construct name; not spelled out for this construct)
- Sequence (P52732 18-359 limits assumed): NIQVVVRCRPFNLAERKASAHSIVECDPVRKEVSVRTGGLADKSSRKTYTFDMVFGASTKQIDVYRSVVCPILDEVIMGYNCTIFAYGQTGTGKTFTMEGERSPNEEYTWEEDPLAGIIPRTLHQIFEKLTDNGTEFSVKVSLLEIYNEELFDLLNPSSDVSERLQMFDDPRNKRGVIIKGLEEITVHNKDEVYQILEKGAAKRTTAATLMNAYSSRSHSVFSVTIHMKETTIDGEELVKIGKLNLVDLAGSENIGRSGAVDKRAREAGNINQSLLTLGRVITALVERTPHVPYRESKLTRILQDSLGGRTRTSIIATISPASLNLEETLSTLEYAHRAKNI
- TEST DESCRIPTION: Activity of Eg5 inhibitors in pure protein assay (microtubule-stimulated ATP hydrolysis, malachite green phosphate detection)
- PARTICULARS: microtubule-stimulated ATP hydrolysis by Eg5-367H, 25 degrees, 2 hours
// scale note: pIC50 = -log10(conc_M); give the bare number

-- ask Retrieve pIC50 measured for O=C1OCC2=C1C(c1cccc(O)c1)NC(=S)N2 (centres unmarked) and print it.
-- reply 4.70

-- ask Determine its reported pIC50: CCOC(=O)C1=C(C)NC(=S)NC1c1cccc(O)c1 (centres unmarked) [Monastrol, reference compound]
-- reply 4.92

-- ask Let me know recorded pIC50 for CCOC(=O)C1=C(CN)NC(=S)NC1c1cccc(O)c1 (centres unmarked) , thanks.
-- reply 4.92
